Tested on: rodent lifetime carcinogenesis bioassay, tumor incidence TD50
ASSAY NOTES: carcinogenic potency in animals, long-term in vivo studies, CPDB compilation (AID 1745844)
EXPERIMENTAL PARAMETERS: mouse; strain Swiss albino; males; by gavage; site: any site (literature study); lesion: malignant tumor; dosed 95 weeks; study length 95 weeks
ATTRIBUTE MEASURED: TD50 (mg/kg/day)
Give bare numbers, in mg/kg/day.

Inquiry: Notebook entry, rodent lifetime carcinogenesis bioassay, tumor incidence TD50 assay: TD50 of `C[C@H]([C@H](O)CCC(C)(C)O)[C@H]1CC[C@@]2(O)C3=CC(=O)[C@@H]4C[C@@H](O)[C@@H](O)C[C@]4(C)[C@H]3CC[C@]12C` = ?
Reply text: 0.0558

* * *

Tested on: rodent lifetime carcinogenesis bioassay, tumor incidence TD50
ASSAY NOTES: carcinogenic potency in animals, long-term in vivo studies, CPDB compilation (AID 1745844)
EXPERIMENTAL PARAMETERS: mouse; strain B6AKF1; males; oral dosing; site: lung; lesion: adenoma; dosed 72 weeks; study length 72 weeks
ATTRIBUTE MEASURED: TD50 (mg/kg/day)
Answers are plain numbers, in mg/kg/day.

Inquiry: What TD50 value was documented for this molecule, `CCOC(N)=O` ?
Reply text: 27.8

* * *

Test system: rodent lifetime carcinogenesis bioassay, tumor incidence TD50
ASSAY NOTES: carcinogenic potency in animals, long-term in vivo studies, CPDB compilation (AID 1745844)
EXPERIMENTAL PARAMETERS: rat; strain Fischer 344; males; in drinking water; site: tongue; lesion: basal-cell carcinoma; dosed 104 weeks; study length 127 weeks
ATTRIBUTE MEASURED: TD50

Inquiry: Name the reported TD50 value associated with the compound `CN(CCc1ccccc1)N=O`
Reply text: 0.184 mg/kg/day

* * *

System: rodent lifetime carcinogenesis bioassay, tumor incidence TD50
ASSAY NOTES: carcinogenic potency in animals, long-term in vivo studies, CPDB compilation (AID 1745844)
EXPERIMENTAL PARAMETERS: hamster; strain Syrian Golden; males; by gavage; site: lung; lesion: carcinoma; dosed 35 weeks; study length 65 weeks
ATTRIBUTE MEASURED: TD50 (mg/kg/day)
One number for each entry, in mg/kg/day.

Inquiry: Consider the molecule `O=NN1CCOC1` and give its measured TD50.
Reply text: 14.8

* * *

Tested on: rodent lifetime carcinogenesis bioassay, tumor incidence TD50
ASSAY NOTES: carcinogenic potency in animals, long-term in vivo studies, CPDB compilation (AID 1745844)
EXPERIMENTAL PARAMETERS: mouse; strain B6C3F1; males; i.p.; site: any site (literature study); lesion: several types; types named in the paper; dosed 52 weeks; study length 78 weeks
ATTRIBUTE MEASURED: TD50 (mg/kg/day)
Answers are plain numbers, in mg/kg/day.

Inquiry: // lookup TD50 for `CS(=O)(=O)OCCCNCCCOS(C)(=O)=O`
Reply text: 2.07

* * *

System: rodent lifetime carcinogenesis bioassay, tumor incidence TD50
ASSAY NOTES: carcinogenic potency in animals, long-term in vivo studies, CPDB compilation (AID 1745844)
EXPERIMENTAL PARAMETERS: mouse; strain Swiss albino; males; in drinking water; site: lung; lesion: several types; types named in the paper; dosed 99 weeks; study length 99 weeks
The source made the active and inactive calls. No rule for the calls is given here.
ATTRIBUTE MEASURED: TD50

Inquiry: Quick one: TD50 of `NNCCc1ccccc1` ?
Reply text: 33.1 mg/kg/day (inactive)

* * *

Test system: rodent lifetime carcinogenesis bioassay, tumor incidence TD50
ASSAY NOTES: carcinogenic potency in animals, long-term in vivo studies, CPDB compilation (AID 1745844)
EXPERIMENTAL PARAMETERS: rat; strain Sprague-Dawley; males; by gavage; site: esophagus; lesion: papillary carcinoma; dosed 88 weeks; study length 88 weeks
ATTRIBUTE MEASURED: TD50

Inquiry: Need TD50, item `CCN(CC(F)(F)F)N=O`
Reply text: 2.52 mg/kg/day

* * *

Test system: rodent lifetime carcinogenesis bioassay, tumor incidence TD50
ASSAY NOTES: carcinogenic potency in animals, long-term in vivo studies, CPDB compilation (AID 1745844)
EXPERIMENTAL PARAMETERS: rat; strain Fischer 344; males; in drinking water; site: thyroid gland; lesion: c-cell carcinoma; dosed 103 weeks; study length 104 weeks
Active and inactive are the calls of the source. How the calls were made is not given here.
ATTRIBUTE MEASURED: TD50

Inquiry: Given the entry `Oc1ccccc1` , report its measured TD50.
Reply text: 420 mg/kg/day (inactive)

* * *

System: rodent lifetime carcinogenesis bioassay, tumor incidence TD50
ASSAY NOTES: carcinogenic potency in animals, long-term in vivo studies, CPDB compilation (AID 1745844)
EXPERIMENTAL PARAMETERS: mouse; strain B6C3F1; females; by gavage; site: forestomach; lesion: squamous-cell carcinoma + squamous-cell papilloma; dosed 102 weeks; study length 103 weeks
ATTRIBUTE MEASURED: TD50

Inquiry: Would you kindly share the measured TD50 for `CC(C)=CCl` ?
Reply text: 14.4 mg/kg/day

* * *

So I've got a bunch of compounds here, and I need their TD50 values.
Tested on: rodent lifetime carcinogenesis bioassay, tumor incidence TD50
ASSAY NOTES: carcinogenic potency in animals, long-term in vivo studies, CPDB compilation (AID 1745844)
EXPERIMENTAL PARAMETERS: mouse; strain B6C3F1; males; inhaled; site: lung; lesion: alveolar/bronchiolar adenoma + alveolar/bronchiolar carcinoma; dosed 102 weeks; study length 104 weeks
Give bare numbers, in mg/kg/day.

{"SMILES NOTATION": "C1CO1", "UOM": "mg/kg/day", "TD50": 65.7}

The record that follows has no TD50 shown yet.
Inquiry: Please report the recorded TD50 for `ClCCl` .
Reply text: 920

* * *

System: rodent lifetime carcinogenesis bioassay, tumor incidence TD50
ASSAY NOTES: carcinogenic potency in animals, long-term in vivo studies, CPDB compilation (AID 1745844)
EXPERIMENTAL PARAMETERS: rat; strain Sprague-Dawley; females; by gavage; site: forestomach; lesion: squamous-cell carcinoma, in situ; dosed 52 weeks; study length 156 weeks
ATTRIBUTE MEASURED: TD50

Inquiry: Any idea what TD50 was measured for c1ccc(C2CO2)cc1 (stereo unspecified) ?
Reply text: 129 mg/kg/day

* * *

System: rodent lifetime carcinogenesis bioassay, tumor incidence TD50
ASSAY NOTES: carcinogenic potency in animals, long-term in vivo studies, CPDB compilation (AID 1745844)
EXPERIMENTAL PARAMETERS: mouse; strain B6C3F1; females; in feed; site: all sites + liver; lesion: hemangiosarcoma + hepatocellular carcinoma; dosed 78 weeks; study length 96 weeks
ATTRIBUTE MEASURED: TD50 (mg/kg/day)
Answers are plain numbers, in mg/kg/day.

Inquiry: Look up TD50: `Cc1ccc([N+](=O)[O-])cc1N`
Reply text: 242

* * *

Test system: rodent lifetime carcinogenesis bioassay, tumor incidence TD50
ASSAY NOTES: carcinogenic potency in animals, long-term in vivo studies, CPDB compilation (AID 1745844)
EXPERIMENTAL PARAMETERS: rat; strain F344/DuCrj; females; in drinking water; site: uterus; lesion: endometrial stromal polyp; dosed 104 weeks; study length 104 weeks
The source made the active and inactive calls. How the calls were made is not given here.
ATTRIBUTE MEASURED: TD50

Inquiry: Which measured TD50 value corresponds to `[K+]` ?
Reply text: 204 mg/kg/day (inactive)

* * *

System: rodent lifetime carcinogenesis bioassay, tumor incidence TD50
ASSAY NOTES: carcinogenic potency in animals, long-term in vivo studies, CPDB compilation (AID 1745844)
EXPERIMENTAL PARAMETERS: hamster; strain Syrian Golden; males; in drinking water; site: muscle; lesion: angiosarcoma; dosed 71 weeks; study length 71 weeks
ATTRIBUTE MEASURED: TD50

Inquiry: Find the recorded TD50 belonging to `CNNC` and report it.
Reply text: 1.36 mg/kg/day

* * *

Tested on: rodent lifetime carcinogenesis bioassay, tumor incidence TD50
ASSAY NOTES: carcinogenic potency in animals, long-term in vivo studies, CPDB compilation (AID 1745844)
EXPERIMENTAL PARAMETERS: mouse; strain CDF1; males; in feed; site: liver; lesion: several types; types named in the paper; dosed 96 weeks; study length 96 weeks
ATTRIBUTE MEASURED: TD50

Inquiry: Look at this molecule and give its reported TD50. `Cn1c(N)nc2c3cccnc3ccc21`
Reply text: 48.6 mg/kg/day

* * *

Tested on: rodent lifetime carcinogenesis bioassay, tumor incidence TD50
ASSAY NOTES: carcinogenic potency in animals, long-term in vivo studies, CPDB compilation (AID 1745844)
EXPERIMENTAL PARAMETERS: mouse; strain B6C3F1; females; inhaled; site: nasal cavity; lesion: hemangioma + hemangiosarcoma; dosed 103 weeks; study length 104 weeks
ATTRIBUTE MEASURED: TD50

Inquiry: So what TD50 did CC1CO1 (stereo unspecified) get with rodent lifetime carcinogenesis bioassay, tumor incidence TD50?
Reply text: 1210 mg/kg/day

Where do the numbers come from? From PubChem BioAssay AID1745844.
